- Study System: Matrix metalloproteinase-24 (Homo sapiens)
- Sequence (Q9Y5R2 whole entry): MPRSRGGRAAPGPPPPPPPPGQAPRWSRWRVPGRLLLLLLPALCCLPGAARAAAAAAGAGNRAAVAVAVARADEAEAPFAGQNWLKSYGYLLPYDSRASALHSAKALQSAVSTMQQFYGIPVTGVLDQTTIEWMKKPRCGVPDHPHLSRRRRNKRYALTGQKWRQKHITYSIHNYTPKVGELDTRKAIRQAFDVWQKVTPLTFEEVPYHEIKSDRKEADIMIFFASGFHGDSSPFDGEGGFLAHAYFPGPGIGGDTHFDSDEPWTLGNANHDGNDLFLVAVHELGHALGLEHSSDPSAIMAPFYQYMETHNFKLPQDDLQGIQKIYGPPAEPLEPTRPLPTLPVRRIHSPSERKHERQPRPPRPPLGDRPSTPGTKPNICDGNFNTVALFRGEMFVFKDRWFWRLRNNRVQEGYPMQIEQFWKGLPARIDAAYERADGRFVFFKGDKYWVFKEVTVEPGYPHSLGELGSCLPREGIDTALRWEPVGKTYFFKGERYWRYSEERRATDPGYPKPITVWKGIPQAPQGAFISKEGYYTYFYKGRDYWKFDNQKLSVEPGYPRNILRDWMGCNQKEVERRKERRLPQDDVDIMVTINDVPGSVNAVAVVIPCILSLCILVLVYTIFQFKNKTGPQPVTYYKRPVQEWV
- Experiment: Inhibition of human MMP24
Observable: Ki

# query: Ki | item "C[C@@](CCc1ccc(-c2ccccc2)cc1)(C(=O)NO)S(C)(=O)=O" | system: Matrix metalloproteinase-24 (Homo sapiens)
> 10 µM

---

- Study System: Sodium-dependent noradrenaline transporter (Homo sapiens, UniProt P23975)
- Sequence (P23975 whole entry): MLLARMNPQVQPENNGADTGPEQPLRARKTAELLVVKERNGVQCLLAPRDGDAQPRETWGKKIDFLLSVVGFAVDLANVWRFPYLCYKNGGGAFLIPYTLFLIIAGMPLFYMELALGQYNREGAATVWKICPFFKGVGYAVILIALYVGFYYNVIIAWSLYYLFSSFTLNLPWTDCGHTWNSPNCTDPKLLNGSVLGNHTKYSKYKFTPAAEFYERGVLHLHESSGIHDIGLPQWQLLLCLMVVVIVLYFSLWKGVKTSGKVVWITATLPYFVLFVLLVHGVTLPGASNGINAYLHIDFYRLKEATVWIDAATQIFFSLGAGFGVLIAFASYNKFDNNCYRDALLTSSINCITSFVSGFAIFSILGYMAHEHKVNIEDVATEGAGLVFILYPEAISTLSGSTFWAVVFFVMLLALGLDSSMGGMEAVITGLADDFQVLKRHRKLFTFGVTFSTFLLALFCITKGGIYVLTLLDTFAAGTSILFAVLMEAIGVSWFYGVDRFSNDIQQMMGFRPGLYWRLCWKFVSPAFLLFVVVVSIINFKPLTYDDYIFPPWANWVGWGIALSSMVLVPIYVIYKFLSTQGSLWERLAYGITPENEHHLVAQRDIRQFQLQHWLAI
- Experiment: Inhibition of human norepinephrine transporter
Observable: Ki (µM)
Numbers only here, please. The scale is µM.

Test system Sodium-dependent noradrenaline transporter (Homo sapiens, UniProt P23975); read-out Ki; what value for "C[C@@](CCc1ccc(-c2ccccc2)cc1)(C(=O)NO)S(C)(=O)=O" ?
0.25
